Ref: paper PMC11066147

Molecular target: PfHsp70-1LS (linker switch mutant of PfHsp70-1 carrying the linker of PfHsp70-z) (Plasmodium falciparum) (UniProt Q8IB24)
Experiment: SPR
pKd: −log10 of the molar value.
Reported pKd values follow for various substances
value-kind: pKd

1) ALLLMYRR (peptide) = 7.00
2) NRNNTG (peptide) = 6.33
3) ANNNMYRR (peptide) = 6.01
4) NRLLTG (peptide) = 6.76

---

Reported Kd values follow for various substances
Target: PfHsp70-zLS (linker switch mutant of PfHsp70-z carrying the linker of canonical Hsp70) (Plasmodium falciparum)
Experiment: SPR
value-kind: Kd (nM)

1. NRLLTG (peptide) = 20.7
2. NRNNTG (peptide) = 59.5
3. ALLLMYRR (peptide) = 36.5
